- System: Plasmodium berghei (chloroquine sensitive strain)
- Assay Name: In vivo anti-malarial activity, 4-day suppressive test in infected mice
- Run Conditions: 100 mg/kg daily for 4 days, intragastric, Swiss albino mice
Measurement Name: Day 4 % Suppression (%)
Give bare numbers, in %.

Recorded results for 3 compounds are shown here.
INSERT INTO assay_data (compound, measurement_name, numeric_readout) VALUES
  ('CC1O[C@@H](Oc2c(-c3ccc(O)cc3)oc3cc(O)cc(O)c3c2=O)C(OC(=O)/C=C/c2ccc(O)cc2)C(O)[C@H]1OC(=O)/C=C/c1ccc(O)cc1 (stereo partly shown)', 'Day 4 % Suppression', 13.0),
  ('O=C(/C=C\c1ccc(O)cc1)OCC1O[C@@H](Oc2c(-c3ccc(O)cc3)oc3cc(O)cc(O)c3c2=O)C(O)[C@H](OC(=O)/C=C/c2ccc(O)cc2)[C@@H]1O (stereo partly shown) [Stenopalustroside D]', 'Day 4 % Suppression', 56.5),
  ('O=C(/C=C/c1ccc(O)cc1)OC[C@H]1O[C@@H](Oc2c(-c3ccc(O)cc3)oc3cc(O)cc(O)c3c2=O)[C@H](O)[C@@H](O)[C@@H]1O [Tiliroside]', 'Day 4 % Suppression', 34.7);

Next item in the queue.
Query :: I am curious: what Day 4 % Suppression value has been reported for O=C(/C=C/c1ccc(O)c(O)c1)OCC1O[C@@H](Oc2c(-c3ccc(O)cc3)oc3cc(O)cc(O)c3c2=O)C(O)C(O)[C@@H]1O (stereo partly drawn) [kaempferol 3-O-β-(6″-caffeoylglucoside)] ?
Result :: 13.0

====

For each record, write down the corresponding Day 6 % Suppression.
- Tested on: Plasmodium berghei (chloroquine sensitive strain)
- Assay Name: In vivo anti-malarial activity, 4-day suppressive test in infected mice
- Run Conditions: 10 mg/kg daily for 4 days, intragastric, Swiss albino mice

INSERT INTO assay_data (compound, result) VALUES
  ('O=C(/C=C/c1ccc(O)cc1)OC[C@H]1O[C@@H](Oc2c(-c3ccc(O)cc3)oc3cc(O)cc(O)c3c2=O)[C@H](O)[C@@H](O)[C@@H]1O [Tiliroside]', '35.1%'),
  ('O=C(/C=C\c1ccc(O)cc1)OCC1O[C@@H](Oc2c(-c3ccc(O)cc3)oc3cc(O)cc(O)c3c2=O)C(O)[C@H](OC(=O)/C=C/c2ccc(O)cc2)[C@@H]1O (stereo partly shown) [Stenopalustroside D]', '32.4%'),
  ('CCN(CC)CCCC(C)Nc1ccnc2cc(Cl)ccc12 (stereo not shown) [Chloroquine, reference compound]', '100%');

Next compound, Day 6 % Suppression to be filled in.
Query :: Could you share which Day 6 % Suppression value was measured for O=C(/C=C/c1ccc(O)c(O)c1)OCC1O[C@@H](Oc2c(-c3ccc(O)cc3)oc3cc(O)cc(O)c3c2=O)C(O)C(O)[C@@H]1O (stereo partly drawn) [kaempferol 3-O-β-(6″-caffeoylglucoside)] ?
Result :: 37.8%

====

Give measured Day 5 % Suppression for each item. Keep answers brief.
- System: Plasmodium berghei (chloroquine sensitive strain)
- Assay Name: In vivo anti-malarial activity, 4-day suppressive test in infected mice
- Run Conditions: 50 mg/kg daily for 4 days, intragastric, Swiss albino mice
Field: value (include unit after the number)

Answered examples (2):
INSERT INTO assay_data (compound, system_name, measurement_name, result) VALUES
  ('CC1O[C@@H](Oc2c(-c3ccc(O)cc3)oc3cc(O)cc(O)c3c2=O)C(OC(=O)/C=C/c2ccc(O)cc2)C(O)[C@H]1OC(=O)/C=C/c1ccc(O)cc1 (stereo partly shown)', 'Plasmodium berghei (chloroquine sensitive strain)', 'Day 5 % Suppression', '24.2%'),
  ('O=C(/C=C\c1ccc(O)cc1)OCC1O[C@@H](Oc2c(-c3ccc(O)cc3)oc3cc(O)cc(O)c3c2=O)C(O)[C@H](OC(=O)/C=C/c2ccc(O)cc2)[C@@H]1O (stereo partly shown) [Stenopalustroside D]', 'Plasmodium berghei (chloroquine sensitive strain)', 'Day 5 % Suppression', '63.6%');

Parameters: items (list). Returns: Day 5 % Suppression for each item.
1. O=C(/C=C/c1ccc(O)c(O)c1)OCC1O[C@@H](Oc2c(-c3ccc(O)cc3)oc3cc(O)cc(O)c3c2=O)C(O)C(O)[C@@H]1O (stereo partly drawn) [kaempferol 3-O-β-(6″-caffeoylglucoside)]
2. O=C(/C=C/c1ccc(O)cc1)OC[C@H]1O[C@@H](Oc2c(-c3ccc(O)cc3)oc3cc(O)cc(O)c3c2=O)[C@H](O)[C@@H](O)[C@@H]1O [Tiliroside]

Result ::
1: 54.5%; 2: 64.0%

====

- Tested on: Plasmodium berghei (chloroquine sensitive strain)
- Assay Name: In vivo anti-malarial activity, 4-day suppressive test in infected mice
- Run Conditions: 100 mg/kg daily for 4 days, intragastric, Swiss albino mice
- Protocol: Tests were performed in a 4-day suppressive standard test using the methods of David, Thurston and Peters (David, A. F., Philip, J. R., Simon, L. C., Reto B., and Solomon N. Antimalarial drug discovery: Efficacy models for compound screening. Nature Reviews. 2004; 3: 509-520). The plasmodium species, that is most widely employed in rodent malaria parasite-Plasmodium berghei (chloroquine sensitive strain), was used to infect Swiss albino mice for a fourday suppressive test. […]
Would you mind telling me the reported Day 5 % Suppression of each entry?
Answers are plain numbers, in %.

Record excerpt, results attached:
INSERT INTO measurements (molecule, unit_spec, numeric_readout) VALUES
  ('O=C(/C=C/c1ccc(O)cc1)OC[C@H]1O[C@@H](Oc2c(-c3ccc(O)cc3)oc3cc(O)cc(O)c3c2=O)[C@H](O)[C@@H](O)[C@@H]1O [Tiliroside]', '%', 39.3),
  ('CC1O[C@@H](Oc2c(-c3ccc(O)cc3)oc3cc(O)cc(O)c3c2=O)C(OC(=O)/C=C/c2ccc(O)cc2)C(O)[C@H]1OC(=O)/C=C/c1ccc(O)cc1 (stereo partly shown)', '%', 21.2),
  ('O=C(/C=C\c1ccc(O)cc1)OCC1O[C@@H](Oc2c(-c3ccc(O)cc3)oc3cc(O)cc(O)c3c2=O)C(O)[C@H](OC(=O)/C=C/c2ccc(O)cc2)[C@@H]1O (stereo partly shown) [Stenopalustroside D]', '%', 60.6);

Next molecule, Day 5 % Suppression to be filled in.
Query :: Hi! What's the reported Day 5 % Suppression for O=C(/C=C/c1ccc(O)c(O)c1)OCC1O[C@@H](Oc2c(-c3ccc(O)cc3)oc3cc(O)cc(O)c3c2=O)C(O)C(O)[C@@H]1O (stereo partly drawn) [kaempferol 3-O-β-(6″-caffeoylglucoside)] on Plasmodium berghei (chloroquine sensitive strain)?
Result :: 15.1
